- Test system: OVCAR-5 ovarian
- experiment.summary: NCI-60 one-dose screen, 48 h (100 = growth as untreated, 0 = no growth, -100 = all killed)
- setup.conditions: 10 µM
This is part of a sample that, as a whole, favours compounds with a hit. Of some 83,000 tested, about 20% had one in any assay.
observed.property: growth (%)
Write it as a number; the unit % goes unstated.

Worked cases, answers included:
COc1ccc(-c2nc3ncccn3c2-c2nnc(-c3ccc(F)cc3)o2)cc1 : 98.1
O=C1NC(=O)N(Cc2ccccc2)CC1Br (configuration not stated) : 85.3
CSc1nn(-c2ccccc2)c2ncnc(Oc3ccc(C)cc3)c12 : 92.5
COc1ccccc1/C=C/C(=O)c1ccccc1 : 105
COc1cc2nc(Nc3cccc(NC(C)=O)c3)nc(N)c2cc1OC : 117
CCCCC/C=C/C(=O)CCc1ccc(O)c(OC)c1 : 127
Cc1ccc(-c2n[nH]c(=O)c3noc(-c4ccc(C)cc4)c23)cc1 : 66.2
Cc1ccc(NC(=O)Nc2cccnc2)cc1NC(=O)Nc1cccnc1 : 110

Q: Sample `Cc1ccc(NC(=O)CSc2nc3ccccc3c(=O)n2CCc2ccccc2)c(C(=O)O)c1` — what was its growth?
Result: 111

Q: Sample `Nc1ncnc2[nH]c(=O)[nH]c12` — what was its growth?
Result: 87.9

Q: Sample `COc1ccc(-c2ccc(-c3ccc(C(=N)N)cn3)o2)cc1` — what was its growth?
Result: 76.9

Q: Sample N#CC1=C(Nc2ccccc2Cl)SC(c2ccccc2O)NC1=O (configuration not stated) — what was its growth?
Result: 105
